Tested on: ACHN renal
assay.method.text: NCI tumour cell line growth inhibition, 48 h
Attribute: TGI
recorded.metric: TGI

>  <molecule>
Cc1ccc(C)c(/C=C2\CN(C(=O)OC(C)(C)C)C/C(=C\c3cc(C)ccc3C)C2=O)c1

>  <result>
> 100 µM

$$$$
>  <molecule>
CCOC1Oc2ccccc2-c2nc(SC)ncc21 (stereo not drawn)

>  <result>
> 100 µM

$$$$
>  <molecule>
O=c1cn[nH]c(=S)n1/N=C/c1c[nH]c2ccccc12

>  <result>
> 100 µM

$$$$

* * *

Attribute: TGI
System: HS 578T breast
assay.method.text: NCI tumour cell line growth inhibition, 48 h
recorded.metric: TGI

>  <compound>
O=C1CC(=O)NC(=NNS(=O)(=O)c2ccccc2)N1

>  <recorded.metric>
TGI

>  <result>
> 100 µM

$$$$
>  <compound>
COc1cc(-c2cc(-c3cc(OC)c(OC)c(OC)c3)nc3nc(N)[nH]c(=O)c23)ccc1Oc1ccnc2cc(Cl)ccc12

>  <recorded.metric>
TGI

>  <result>
> 100 µM

$$$$
>  <compound>
COc1ccc(C2CC3(c4ccccc4)ON=C(c4ccccc4)N3c3ccccc3S2)cc1 (stereo unspecified)

>  <recorded.metric>
TGI

>  <result>
> 100 µM

$$$$
>  <compound>
Cc1cccc(-c2cc(=O)c3c(C)cc(C)nc3[nH]2)c1

>  <recorded.metric>
TGI

>  <result>
> 20.3 µM

$$$$
>  <compound>
Oc1cc2ccccc2c(-c2c(O)c(O)cc3ccccc23)c1O

>  <recorded.metric>
TGI

>  <result>
> 44.1 µM

$$$$
>  <compound>
Cn1c(NCC(O)CN2CCCC2)cc(=O)n(C)c1=O (stereo unspecified)

>  <recorded.metric>
TGI

>  <result>
> 100 µM

$$$$
